test system: A. baumannii 49; experiment: In vitro antibacterial activity test (broth microdilution); type: cell-based; conditions: A. baumannii 49
Collected MIC90 values appear next to each entry.

Take a look at these entries with their results.
>  <COMPOUND>
CC(C)(ON=C(C(=O)NC1C(=O)N2C(C(=O)[O-])=C(C[n+]3cnc(N)c(NCC=CC(=O)NO)c3)CSC12)c1csc(N)n1)C(=O)O (centres unmarked) [Compound 47]

>  <MIC90>
>128 µg/mL

$$$$
>  <COMPOUND>
CC(C)(O/N=C(\C(=O)N[C@@H]1C(=O)N2C(C(=O)[O-])=C(/C=C/C[n+]3cnc(N)c(NCCNC(=O)c4cc(=O)c(O)cn4O)c3)CSC12)c1csc(N)n1)C(=O)O (some centres unmarked) [Compound 11]

>  <MIC90>
>128 µg/mL

$$$$
>  <COMPOUND>
CC(C)(ON=C(C(=O)NC1C(=O)N2C(C(=O)O)=C(C=CC[n+]3cnc(N)c(NC(=O)CCN)c3N)CSC12)c1csc(N)n1)C(=O)O.O=C([O-])C(F)(F)F (centres unmarked) [Compound 45]

>  <MIC90>
>128 µg/mL

$$$$

Given item CC(C)(O/N=C(\C(=O)N[C@@H]1C(=O)N2C(C(=O)[O-])=C(/C=C/C[n+]3cnc(N)c(NCCNC(=O)c4cc(=O)c(O)cn4O)c3)CSC12)c1csc(N)n1)C(=O)O (some centres unmarked) [Compound 10] , the value recorded as its MIC90 is >128 µg/mL

Given item CC(C)(O/N=C(\C(=O)N[C@@H]1C(=O)N2C(C(=O)[O-])=C(C[n+]3cnc(N)c(NCCN)c3)CSC12)c1csc(N)n1)C(=O)O (some centres unmarked) [Compound 49] , the value recorded as its MIC90 is 64 µg/mL

====

Collected AUC values appear next to each entry.
experiment: Pharmacokinetics study in rat, IV; format: in vivo, SD rat; details: SD, plasma; Rat (10 mg/kg) single IV
Dear colleague, please send the value followed by its unit.

>  <COMPOUND>
C[C@H](O/N=C(\C(=O)N[C@@H]1C(=O)N2C(C(=O)[O-])=C(C[n+]3cnc(N)c(NCCNC(=O)c4cc(=O)c(O)cn4O)c3)CSC12)c1nc(N)sc1Cl)C(=O)O (some centres unmarked)

>  <AUC>
40300 ng·h/mL

$$$$

Shift focus to the following entry.
Given item CC(C)(O/N=C(\C(=O)N[C@@H]1C(=O)N2C(C(=O)[O-])=C(/C=C/C[n+]3cnc(N)c(NCCNC(=O)c4cc(=O)c(O)cn4O)c3)CSC12)c1csc(N)n1)C(=O)O (some centres unmarked) , the value recorded as its AUC is 54600 ng·h/mL

====

tested on: A. baumannii 52; assay: In vitro antibacterial activity test (broth microdilution); format: cell-based; conditions: A. baumannii 52
MEASURED PARAMETER: MIC90 (mg/L)
Value expressed in mg/L; do not type the unit.

>  <MOLECULE>
CC(C)(ON=C(C(=O)NC1C(=O)N2C(C(=O)[O-])=C(C[n+]3cnc(N)c(NCC=CC(=O)NO)c3)CSC12)c1csc(N)n1)C(=O)O (centres unmarked)

>  <TARGET>
A. baumannii 52

>  <MEASURED>
128

$$$$

Shift focus to the following entry.
Given item CC(C)(O/N=C(\C(=O)N[C@@H]1C(=O)N2C(C(=O)[O-])=C(C[n+]3cnc(N)c(NCCN)c3)CSC12)c1csc(N)n1)C(=O)O (some centres unmarked) , the value recorded as its MIC90 is 64
